PROTOCOL DESCRIPTION: Measurement of LogP values by HPLC on reversed phase columns (EEC directive 79/831 Annex V.A8)
Format: physicochemical
Marks after values point to notes of the source that are not given here.
The entries below come with measured LogP values attached.

What does the data say about its LogP? Entry: COc1ccc(CNc2nsc(C(=O)NCc3cscc3C)c2Cl)cc1 [I-1201]
3.61[a]

Repeat for the following molecule: COc1ccc(CNc2nsc(C(=O)NC(C)c3ccccc3Cl)c2Cl)cc1 (stereo not shown) [I-112]
4.16[a]

----------
The entries below come with measured LogP [a] values attached.
PROTOCOL DESCRIPTION: Measurement of LogP values by HPLC on reversed phase columns (EEC directive 79/831 Annex V.A8)
Format: physicochemical

What does the data say about its LogP [a]? Entry: COC(=O)c1snc(N=C(c2ccccc2)c2ccccc2)c1Cl [E-VII-006]
4.40^[a]

Repeat for the following molecule: O=C(NC1CCCC2CCCCC21)c1snc(N=CN2CCCC2)c1Cl (stereo not drawn) [II-036]
3.52^[a]

Repeat for the following molecule: CN(C)C=Nc1nsc(C(=O)NC2CCCC3CCCCC32)c1Cl (stereo not drawn) [II-038]
3.94^[a]
